# Study Target: KPC-2 (Klebsiella pneumoniae)
# Sequence (Q9F663 25-293 limits assumed): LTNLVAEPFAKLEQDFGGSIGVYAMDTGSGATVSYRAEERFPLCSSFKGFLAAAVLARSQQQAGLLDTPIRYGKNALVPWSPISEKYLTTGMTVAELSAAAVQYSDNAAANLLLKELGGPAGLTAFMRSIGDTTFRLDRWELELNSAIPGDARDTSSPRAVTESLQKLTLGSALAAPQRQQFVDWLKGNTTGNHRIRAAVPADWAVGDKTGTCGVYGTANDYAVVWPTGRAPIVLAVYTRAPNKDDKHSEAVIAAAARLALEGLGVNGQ
# Experimental Details: Inhibition of purified class A carbapenemase KPC-2 (Ki, carbapenem substrates)
# Type: biochemical
# Condition Notes: purified KPC-2, substrate biapenem; read-out: Ki KPC-2, Biapenem
Property Name: Ki

smiles=COc1ccc2c(c1C(=O)O)OB(O)[C@@H](Sc1nnc(N)s1)C2 property_name=Ki result="10 to 100 nM"
smiles=CSc1ccc2c(c1C(=O)O)OB(O)[C@@H](Sc1nnc(N)s1)C2 property_name=Ki result="10 to 100 nM"

----------
Listed below: pKi values for each entry.
# Study Target: NDM-1 (Klebsiella pneumoniae)
# Sequence (C7C422 29-270, looked up, species assumed): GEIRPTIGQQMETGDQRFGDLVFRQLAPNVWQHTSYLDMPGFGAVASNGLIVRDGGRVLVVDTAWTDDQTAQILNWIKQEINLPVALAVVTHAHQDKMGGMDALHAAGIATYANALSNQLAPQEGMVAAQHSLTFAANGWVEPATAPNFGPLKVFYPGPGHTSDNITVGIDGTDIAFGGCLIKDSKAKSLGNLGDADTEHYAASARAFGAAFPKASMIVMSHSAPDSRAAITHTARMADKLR
# Experimental Details: biochemical
# Condition Notes: cleavage of meropenem (100 uM) by NDM-1; read-out: Ki, Meropenem
pKi: −log10 of the molar value.
Property Name: pKi

smiles=Cn1cnnc1S[C@H]1Cc2cccc(C(=O)O)c2OB1O result="7.00 to 8.00"
smiles=CO[C@H]1Cc2cccc(C(=O)O)c2OB1O result="7.00 to 8.00"
smiles=CSc1ccc2c(c1C(=O)O)OB(O)[C@@H](Sc1nnc(N)s1)C2 result="> 8.00"
smiles=Nn1cnnc1S[C@H]1Cc2cccc(C(=O)O)c2OB1O result="> 8.00"
smiles=O=C(O)c1cccc2c1OB(O)[C@@H](Sc1nncs1)C2 result="7.00 to 8.00"
smiles=COc1ccc2c(c1C(=O)O)OB(O)[C@@H](Sc1nnc(N)s1)C2 result="> 8.00"
smiles=O=C(O)c1cccc2c1OB(O)[C@@H](OC1CNC1)C2 result="> 8.00"
